Origin of measurements: PubChem BioAssay (NCI)

compounds and their reported TGI
system: NCI-H522 lung; assay: NCI tumour cell line growth inhibition, 48 h
Output spec: scalar in µM, unitless text.

[
  {
    "compound": "O=[N+]([O-])c1ccc(/C=C(/c2ccc([N+](=O)[O-])o2)S(=O)(=O)c2ccccc2)o1",
    "subject_of_test": "NCI-H522 lung",
    "value_units": "µM",
    "TGI": 4.21
  },
  {
    "compound": "C[S+](C)CC(=O)c1ccc2c(c1)Sc1ccccc1O2",
    "subject_of_test": "NCI-H522 lung",
    "value_units": "µM",
    "TGI": 2.5
  }
]

Turning to the following compound.
Per the records, this compound ( COC1C(O)C(C)OC(OC2CC3CCC4C(CCC5(C)C(C6=CC(=O)OC6)CCC45O)C3(O)C(OC(C)=O)C2)C1O (stereo not given) ) has TGI equal to 3.21
